TGT: MMP-13 (Homo sapiens)
Construct: catalytic domain (^104Tyr˜^267Gly) was amplified with RT-PCR; His-tag; enterokinase digestion-site; made in house; host or cells: Escherichia coli
EXPERIMENTAL PROTOCOL: Assay for inhibitory activities on MMPs (fluorogenic peptide substrate), MMP-13
Type: biochemical
RUN PARAMETERS: catalytic domain 104Tyr-267Gly; substrate MOCAc-Pro-Leu-Gly-Leu-A2Pr(DNP)-Ala-Arg-NH2
Listed here are molecules together with their documented IC50.
Numeric answer only, unit nM assumed.

[[record]]
molecule = "C[C@@H](NS(=O)(=O)c1ccc(-c2ncc(-c3ccc4ccccc4c3)s2)cc1)C(=O)O [Compound B-53]"
assay_result = 12.4

[[record]]
molecule = "C[C@@H](NS(=O)(=O)c1ccc(-c2ncc(-c3ccc(F)cc3)s2)cc1)C(=O)O [Compound B-27]"
assay_result = 15.3

[[record]]
molecule = "COc1ccc(-c2cnc(-c3ccc(S(=O)(=O)N[C@@H](C)C(=O)O)cc3)s2)cc1 [Compound B-24]"
assay_result = 8.4

[[record]]
molecule = "COc1ccc(-c2cnc(-c3ccc(S(=O)(=O)N[C@H](CC(C)C)C(=O)O)cc3)s2)cc1 [Compound B-34]"
assay_result = 6.82

[[record]]
molecule = "CSCC[C@@H](NS(=O)(=O)c1ccc(-c2ncc(-c3ccc(Cl)cc3)o2)cc1)C(=O)O [Compound A-36]"
assay_result = 140

[[record]]
molecule = "COc1ccc(-c2cnc(-c3ccc(S(=O)(=O)N[C@@H](C(=O)O)C(C)C)cc3)s2)cc1 [Compound B-6]"
assay_result = 1.16

[[record]]
molecule = "CC(C)[C@@H](NS(=O)(=O)c1ccc(-c2ncc(-c3ccc(Br)cc3)o2)cc1)C(=O)O [Compound A-27]"
assay_result = 54.5

[[record]]
molecule = "O=C(O)C[C@@H](NS(=O)(=O)c1ccc(-c2ncc(-c3ccc(Cl)cc3)s2)cc1)C(=O)O [Compound B-38]"
assay_result = 7.43


Incoming: Query: IC50; subject: COc1ccc(-c2cnc(-c3ccc(S(=O)(=O)N[C@H](C)C(=O)O)cc3)s2)cc1 [Compound B-23]
Outgoing: 2.04

Incoming: Query: IC50; subject: COc1ccc(-c2cnc(-c3ccc(S(=O)(=O)N[C@H](Cc4ccccc4)C(=O)O)cc3)o2)cc1 [Compound A-14]
Outgoing: 5.51

Incoming: Query: IC50; subject: C[C@H](NS(=O)(=O)c1ccc(-c2ncc(-c3ccc(Cl)cc3)s2)cc1)C(=O)O [Compound B-26]
Outgoing: 14.1

Incoming: Query: IC50; subject: C[C@@H](NS(=O)(=O)c1ccc(-c2ncc(-c3ccc(Cl)cc3)s2)cc1)C(=O)O [Compound B-25]
Outgoing: 4.82

Incoming: Query: IC50; subject: O=C(O)[C@@H](Cc1ccccc1)NS(=O)(=O)c1ccc(-c2ncc(-c3ccccc3)s2)cc1 [Compound B-11]
Outgoing: 6.34

Incoming: Query: IC50; subject: O=C(O)CNS(=O)(=O)c1ccc(-c2ncc(-c3ccc(Cl)cc3)s2)cc1 [Compound B-52]
Outgoing: 29.5

Incoming: Query: IC50; subject: O=C(O)[C@H](Cc1ccccc1)NS(=O)(=O)c1ccc(-c2ncc(-c3ccc(Cl)cc3)o2)cc1 [Compound A-16]
Outgoing: 774
